Numbers sourced from patent US20190040102A1.

- assayed target: somatostatin receptor type 2 (SSTR2) (UniProt P30874 1-369)
- Sequence (P30874 whole entry): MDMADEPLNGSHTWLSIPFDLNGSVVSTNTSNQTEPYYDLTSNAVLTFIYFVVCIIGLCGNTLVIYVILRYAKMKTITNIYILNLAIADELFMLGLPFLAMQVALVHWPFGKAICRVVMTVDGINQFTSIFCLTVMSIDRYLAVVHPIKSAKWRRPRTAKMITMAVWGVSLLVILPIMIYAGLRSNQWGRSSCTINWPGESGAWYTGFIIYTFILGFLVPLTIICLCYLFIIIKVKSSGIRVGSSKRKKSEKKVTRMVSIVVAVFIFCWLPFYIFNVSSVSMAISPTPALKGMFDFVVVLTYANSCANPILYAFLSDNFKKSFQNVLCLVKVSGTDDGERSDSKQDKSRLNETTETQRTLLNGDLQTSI
- test details: cell-based or functional assay
Positions of bridges follow the written chain, without caps; N, C: chain ends. Non-standard residues stand in square brackets, D forms with d. dPhe(4-CONH2) = NC(=O)c1ccc(C[C@@H](N)C(=O)O)cc1; Phe(4-Cl) = N[C@@H](Cc1ccc(Cl)cc1)C(=O)O; dPhe(4-Cl) = N[C@H](Cc1ccc(Cl)cc1)C(=O)O
measured endpoint: IC50 (PathHunter β-Arrestin, antagonist mode) (nM)

[[record]]
binder = "H-[Phe(4-Cl)][dC][Phe(4-Cl)][dPhe(4-CONH2)]K(Me)TC[dPhe(4-Cl)]-NH2 (disulfide 2-7; SMILES CNCCCC[C@@H]1NC(=O)[C@@H](Cc2ccc(C(N)=O)cc2)NC(=O)[C@H](Cc2ccc(Cl)cc2)NC(=O)[C@H](NC(=O)[C@@H](N)Cc2ccc(Cl)cc2)CSSC[C@@H](C(=O)N[C@H](Cc2ccc(Cl)cc2)C(N)=O)NC(=O)[C@H]([C@@H](C)O)NC1=O) [Compound 47: H-Cpa-cyclo[D-Cys-Cpa-D-Phe(4-carbamoyl)-Lys(Nε-Me)-Thr-Cys]-D-Cpa-NH2]"
observed_value = 1.51

